- testSystem: Ruegaria pomeroyi MarR_3CDH (Ruegeria pomeroyi)
- Sequence (Q5LTG1 entry or part of it): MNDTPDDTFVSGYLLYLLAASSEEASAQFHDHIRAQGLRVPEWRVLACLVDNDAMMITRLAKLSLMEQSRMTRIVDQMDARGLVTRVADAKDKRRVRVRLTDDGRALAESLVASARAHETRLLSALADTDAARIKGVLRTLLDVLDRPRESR
- testSummary: ITC IAA binding to MarR_3CDH
- runConditions: 25 °C, IadR (MarR_73-like), first site, read-out: KD1
measurementKind: Kd (nM)

>>> readoutnumber("O=C(O)Cc1c[nH]c2ccccc12 [IAA, indole-3-acetic acid]")
237

###

- testSystem: Ruegaria pomeroyi MarR_3CDH (Ruegeria pomeroyi)
- testSummary: ITC IAA binding to MarR_3CDH
- runConditions: 25 °C, IadR (MarR_73-like), second site, read-out: KD2
measurementKind: Kd (nM)

>>> readoutnumber("O=C(O)Cc1c[nH]c2ccccc12")
6
